Test system: KM12 colon
Assay: NCI tumour cell line growth inhibition, 48 h
Kindly state TGI for each of the entries shown.

TGI lookup needed for NC(C(=O)O)C(N)C(=O)O (stereo not drawn) , thanks.
> 100 µM

Same lookup for NC1=C(c2nc(-c3cc4ccccc4oc3=O)cs2)C(c2ccco2)c2c(c3ccccc3oc2=O)O1 (stereo not drawn) , please.
> 150 µg/mL

Same lookup for O=C1OC(=O)C2C3CCC(O3)C12 (stereo not drawn) , please.
> 100 µM

Same lookup for `N#Cc1cccc(Nc2nccc(-c3cnn4ncccc34)n2)c1` , please.
0.0263 µM

Same lookup for `COc1ccc(/C=N/NC(=O)O)cc1` , please.
> 100 µM

Same lookup for `Cc1oc2c(c1C(=O)c1ccccc1)C(=O)c1ccccc1C2=O` , please.
18.7 µM

Same lookup for `O=S(=O)(Nc1ccc(Cl)c(C(F)(F)F)c1)c1ccc(-c2cnc(C3CC3)o2)cc1` , please.
7.36 µM

Same lookup for Cc1ccc(S(=O)(=O)C2=c3ncccc3=C3C(=O)c4ccccc4C(=O)C32)cc1 (stereo not drawn) , please.
> 76.6 µM

Same lookup for `COc1cc(/C=C2\NC(=O)N(/C=C3\C(=O)Oc4ccccc4C3=O)C2=O)ccc1O` , please.
> 100 µM

Same lookup for C=C1C(=O)C=C2C=C3C(=O)C(C)(C)C[C@]3(O)C12C (stereo partly drawn) , please.
32.1 µM

Same lookup for `O=[N+]([O-])c1ccc(N(CCO)CCO)c2c1no[n+]2[O-]` , please.
2.53 µM

Same lookup for CNC(=O)OCc1nc(S(C)=O)n(C)c1COC(=O)NC (stereo not drawn) , please.
> 100 µM

Same lookup for CC1C(c2ccccc2O)c2cc3c(cc2OC1N1CCCC1)OCO3 (stereo not drawn) , please.
> 100 µM

Same lookup for CC(NC1CCC[C@H]1O)c1ccccc1 (mixture of isomers) , please.
> 100 µM

Same lookup for `O=[N+]([O-])c1cc(Cl)ccc1S(=O)(=O)c1ccccc1` , please.
> 100 µM

Same lookup for `COC(=O)c1ccccc1CC1Cc2cc3c(cc2C1)CCC3` , please.
71.1 µM

Same lookup for Cn1cc(-c2ccc(CCOC3CCCCO3)cc2)c2c(C#N)cccc21 (stereo not drawn) , please.
> 100 µM

Same lookup for CC1=CCC2(C#N)CCC1C2=O (stereo not drawn) , please.
> 100 µM

----------
System: OVCAR-3 ovarian
Assay: NCI tumour cell line growth inhibition, 48 h
Kindly state TGI for each of the entries shown.

TGI lookup needed for `O=C(Oc1ccc([N+](=O)[O-])cc1)N1CCC(C(O)(c2ccc3c(c2)OCO3)c2ccc3c(c2)OCO3)CC1` , thanks.
> 100 µM

Same lookup for CNC(=O)OCc1nc(S(C)=O)n(C)c1COC(=O)NC (stereo unspecified) , please.
> 100 µM

Same lookup for `C(/COc1cccnc1)=N\NC1=NCCN1` , please.
> 100 µM

Same lookup for `O=[N+]([O-])c1cc(Cl)ccc1S(=O)(=O)c1ccccc1` , please.
> 100 µM

Same lookup for `COc1cc2c(cc1OC)-c1cc3ccccc3c(=O)n1CCC2` , please.
60.4 µM

Same lookup for CC(C)C1OCC(CO)CO1 (stereo unspecified) , please.
> 100 µM

----------
Tested on: UACC-257 melanoma
Experiment: NCI tumour cell line growth inhibition, 48 h
Kindly state TGI for each of the entries shown.

TGI lookup needed for `NC(=O)c1c(OCc2c(F)cc(Br)cc2F)nsc1NC(=O)NCCCCN1CCCC1` , thanks.
3.94 µM

Same lookup for CC(C)(C)OC(=O)C(C1NC(C(=O)O)C(C)(C)S1)N1C(=O)c2ccccc2C1=O (stereo not given) , please.
> 100 µM

Same lookup for CC(C)(C)C1CCC2c3c([nH]c4ccccc34)C3C(=O)N(c4ccc(Br)cc4)C(=O)C3C2C1 (stereo not given) , please.
50.2 µM

Same lookup for `COc1ccc(OC)c(CCc2cc(OC)c(OC)cc2C)c1` , please.
> 100 µM

Same lookup for CC(=O)OC1CC(OC2C(O)CC(OC3C(O)CC(OC4CCC5(C)C(CCC6C5CC(O)C5(C)C(C7=CC(=O)OC7)CCC65O)C4)OC3C)OC2C)OC(C)C1O (stereo not given) (tested in a mixture with another compound) , please.
0.305 µM

Same lookup for CN1c2ccccc2C2c3c(O)ccc(O)c3C=C([N+](=O)[O-])C21 (stereo not given) , please.
0.516 µM

Same lookup for `CCCCCCCCCCCCCCCCCC(=O)NCCCNCCCNC(=O)CCCCCCCCCCCCCCCCC` , please.
> 100 µM

Same lookup for `COc1cc(OC)c(/C=N/N=C(\N)NO)c(OC)c1` , please.
> 100 µM

Same lookup for `O=[N+]([O-])c1ccc2nc(N/N=C/c3ccc(O)cc3)sc2c1` , please.
45 µM

Same lookup for CC1CC2C3CC(F)C4=CC(=O)C=CC4(C)C3(F)C(O)CC2(C)C1(O)C(=O)CO (stereo not given) , please.
> 100 µM

Same lookup for `O=C(NCCNCCO)c1ccc2oc3cc4ccccc4c(=O)n3c2c1` , please.
20.2 µM

Same lookup for COc1cc(C2C(C(=O)O)=C(C)Oc3cc4c(cc32)OCO4)cc(OC)c1OC (stereo not given) , please.
> 100 µM

Same lookup for COC(=O)[C@]1(c2cc3ccccc3n2S(=O)(=O)c2ccccc2)CC2CCC1NC2 (stereo not given in full) , please.
32 µM

Same lookup for `C=CCSc1nn(CC=C)cc2ncnc1-2` , please.
> 100 µM

Same lookup for `O=[N+]([O-])C(=C1Nc2ccccc2N1)C(Cl)=C(Cl)Cl` , please.
> 100 µM

Same lookup for `Cc1cc2c3c(ccc4ncc(c43)CN2c2ccc(NS(C)(=O)=O)cc2)[nH]1` , please.
> 100 µM

Same lookup for CC1CC(=O)C(C(O)CC2CC(=O)N(c3ccccc3)C(=O)C2)C(C)C1 (stereo not given) , please.
> 100 µM

Same lookup for O=c1cccc(C#CCCCCOC2CCCO2)o1 (stereo not given) , please.
> 20.2 µM

Same lookup for C[n+]1c2ccccc2c(NC(CCC(N)=O)C(=O)O)c2ccccc21 (stereo not given) , please.
> 100 µM

Same lookup for `CCOc1ccc(N=Cc2cc(OC)c(OC)c(OC)c2)cc1` , please.
> 100 µM

----------
System: UACC-257 melanoma
Experiment: NCI tumour cell line growth inhibition, 48 h
Where a SMILES comes first, the peptide text is derived from it. [ ]: non-standard residue; d: D form. 2Nal = N[CH](Cc1ccc2ccccc2c1)C(=O)O
Kindly state TGI for each of the entries shown.

TGI lookup needed for `COCCN1C2=CCCCC2=Nc2c(N)nc(N)nc21` , thanks.
> 100 µM

Same lookup for `Cc1ccnc2c1NC(=O)c1cccnc1N2C1CC1` , please.
> 100 µM

Same lookup for CCNC1CC(C(C)(C)NCC)CC=C1C (centres undefined) , please.
> 100 µM

Same lookup for `O=C(c1nsc(Cl)c1Cl)N1CCCCC1` , please.
> 100 µM

Same lookup for Nc1nc(=O)n(C2OC(CO)C(O)C2O)cc1F (centres undefined) , please.
> 100 µM

Same lookup for `O=C1/C(=C\c2ccccc2)c2ccccc2N1Cc1ccccc1` , please.
17.6 µM

Same lookup for CC1C(c2ccccc2O)c2cc3c(cc2OC1N1CCCC1)OCO3 (centres undefined) , please.
92.5 µM

Same lookup for COc1ccc(OC)c(C2CCc3cnc4nc(N)nc(N)c4c3C2)c1 (centres undefined) , please.
> 100 µM

Same lookup for `O=S(=O)(Nc1ccc(Cl)c(C(F)(F)F)c1)c1ccc(-c2cnc(C3CC3)o2)cc1` , please.
7.93 µM

Same lookup for `C=CCC1(O)c2cccc(O)c2C(=O)c2c(O)cccc21` , please.
68.3 µM

Same lookup for `COc1ccc2[nH]cc(/C=C3\C(=O)Nc4ccccc43)c2c1` , please.
73.1 µM

Same lookup for `Clc1ccc2c(NCCNc3nc(-c4ccccc4)cc(-c4ccccc4)n3)ccnc2c1` , please.
3.98 µM

Same lookup for `N#Cc1cccc(Nc2nccc(-c3cnn4ncccc34)n2)c1` , please.
0.0154 µM

Same lookup for `Nc1nc(N)c(-c2ccccc2)c(C(=O)Nc2ccc(Cl)c(Cl)c2)n1` , please.
> 100 µM

Same lookup for `Nc1nc(Nc2ccc(Cl)cc2)sc1C(=O)c1cc2ccccc2oc1=O` , please.
> 100 µM

Same lookup for CC(NC(=O)C(N)Cc1ccccc1)C(=O)NC(Cc1ccc(O)cc1)C(=O)NC(Cc1c[nH]c2ccccc12)C(=O)NC(CCCCN)C(=O)NC(C(=O)NC(C)C(=O)NC(Cc1ccc2ccccc2c1)C(N)=O)C(C)C (centres undefined) (H-FAYWKVA[2Nal]-NH2; configuration not given here) , please.
> 100 µM

Same lookup for COc1ccc(C(=O)C(C(=O)C(=O)Nc2nc3ccc(OC)cc3s2)c2ccc(OC)cc2)cc1 (centres undefined) , please.
> 100 µM

Same lookup for `Cc1oc2c(c1C(=O)c1ccccc1)C(=O)c1ccccc1C2=O` , please.
10.5 µM

Same lookup for `CCCCNc1nc(SC)nc2nc[nH]c12` , please.
> 100 µM

Same lookup for `Cc1cc(NC(=O)CCc2ccc(N3C(N)=NC(N)=NC3(C)C)cc2)ccc1S(=O)(=O)F` , please.
> 100 µM

Same lookup for `COC(=O)C1=NN2c3ccccc3CN([C@@H](C)c3ccccc3)C(=O)[C@@H]2C1` , please.
> 100 µM

Same lookup for `O=C(Oc1ccc([N+](=O)[O-])cc1)N1CCC(C(O)(c2ccc3c(c2)OCO3)c2ccc3c(c2)OCO3)CC1` , please.
> 100 µM

Same lookup for COC(=O)C(Cc1ccccc1)NS(=O)(=O)c1ccc(-c2c3nc(c(-c4ccc(S(=O)(=O)NC(Cc5ccccc5)C(=O)OC)cc4)c4ccc([nH]4)c(-c4ccc(S(=O)(=O)NC(Cc5ccccc5)C(=O)OC)cc4)c4nc(c(-c5ccc(S(=O)(=O)NC(Cc6ccccc6)C(=O)OC)cc5)c5ccc2[nH]5)C=C4)C=C3)cc1 (centres undefined) , please.
> 100 µM

Same lookup for `CCN(C)S(=O)(=O)Nc1cccc(Nc2ncnc3cc(NC(=O)CCl)ccc23)c1Cl` , please.
15.8 µM
